procedure-details: yeast display, Sf9 membrane polyspecificity reagent, FACS + sequencing; frameworks hold sequencing errors
quantity-kind: polyreactivity (PSR sort gate)

primary-sequence: QVQLVESGGGLVQAGGSLRLSCAASGSTFFYYAMGLYRQAPGKERELVADITSSGGRTYYADSVKGRFTISRDNAKNTVYLQMNSLKPEDTAVYYCAARDYRQSRYEYWGQGTQVTVSS
quantity-kind: polyreactivity (PSR sort gate)
measurement: high polyreactivity
--
primary-sequence: QVQLVESGGGLVQAGGSLRLICAASGRTFLPNAMGWYRQAPGKERELVAVITSAGSTYYADSVKGRFTISRDNAKNTVYLQRNSLKPEDTAVYYCSADYLDYDLGDPPPRYYYWGQGTQVTVSS
quantity-kind: polyreactivity (PSR sort gate)
measurement: low polyreactivity
--
primary-sequence: QVQHVESGGGLVQAGGSLRLSCAASGLTFYSYAMGWYRQAPGKERELVATISGGGSTTYADSVKGRFTISRDNAKNTVYLQMNSLKPEDTAVYYCAARSNHYRGWPVPLGYWGQGTQVTVSS
quantity-kind: polyreactivity (PSR sort gate)
measurement: high polyreactivity
--
primary-sequence: QVQLVESGGGLVQAGGSLRLSCAASGRNLQNYAMGWYRQPPGKERELVAAISFSGGRTNYADSVKGRFTISRDNAKNTVYLQMKSLNPEDTAVYYCAKVYRRSGSVSRYDYWGQGTQVTVSS
quantity-kind: polyreactivity (PSR sort gate)
measurement: high polyreactivity
--
primary-sequence: QVQLVESGGGLVQAGGSLRLSCAASGSIFIQYAMGWYRQAPGKERELVAAINSSGGRTYYADSVKGRFTISRDNAKNTVYLQMNRLKPEDTAVYYCAADHGSSFDWGQGTQVTVSS
quantity-kind: polyreactivity (PSR sort gate)
measurement: low polyreactivity

---

procedure-details: yeast display, Sf9 membrane polyspecificity reagent, FACS + sequencing; frameworks hold sequencing errors

primary-sequence: QVQLVESGGGLVQAGGSLRLSCAPSGSTFYPYAMGWYRQAPGKEREFVAAIRSSGTSTYYADSVKGRFTISRDNAKNTVYLQMNSLKPEDTAVYYCAARVRGYSVTRTKPASIGGGSWGQGTQVTVSS
polyreactivity (PSR sort gate): high polyreactivity

primary-sequence: QVQLVESGGGLVQAGGSLLLSCAASGFILYSYAMGWYRQAPGTEREFVSVISRGGGRTYYADSVKGRFTISRDNAKNTVYLQMNCLKPDDTAVYYCAATPSNVYAYEYWGQGTQVTVSS
polyreactivity (PSR sort gate): low polyreactivity

primary-sequence: QVQLVESGGGLVQAGGSLRLSCAASGRIFISNAMGWYRQAPGKERELVAAITWIGDRTYYADSVKGRFTISRDNAKITVYLQMNSLKPEDTAVYYCNRVTSRVSGRYSYDYWGQGTQVTVSS
polyreactivity (PSR sort gate): high polyreactivity

primary-sequence: QVQLVESGGGLVQAGGSLRLSCAASGSTFSPYAMGWYRQAPGKERELVAAINYSSGSTYYADSVKGRFTISRDNAKNTVYLQMNSLKPEDTAVYYCANGWYAGYPYDYWGQGTQVTVSS
polyreactivity (PSR sort gate): low polyreactivity

primary-sequence: QVQLVESGGGLVQAGGSLRLSCAASGSIFWGYAMGWYRQAPGKERELVATITYGGDSTYYADSVKGRFTISRDNANNTVFLQMNSLKTEDTAVYYCNVGVEPYDYDYWGQCTQVTVSS
polyreactivity (PSR sort gate): low polyreactivity

The measurements presented in this section are drawn from the nanobody polyreactivity screen of Harvey et al. (2022).
